test system: Pseudomonas aeruginosa; experiment: Antibacterial activity against IMP-4 producing multidrug-resistant Pseudomonas aeruginosa clinical isolate 19-1 assessed as inhibition of bacterial growth incubated for 18 to 20 hrs by two fold serial dilution assay; type: functional; conditions: time 18-20 hrs
measurementKind: MIC
# number then unit; no other words

Nc1nc(/C(=N/OC(C(=O)O)C2CCC(F)(F)CC2)C(=O)N[C@@H]2C(=O)N3C(C(=O)O)=C(CSCCNC(=O)c4ccc(O)c(O)c4Cl)CS[C@H]23)c(Cl)s1.O=C(O)C(F)(F)F (stereo partly specified)	8 µg/mL
CC(C)[C@@H](O/N=C(\C(=O)N[C@@H]1C(=O)N2C(C(=O)O)=C(CSCCNC(=O)c3ccc(O)c(O)c3Cl)CS[C@H]12)c1csc(N)n1)C(=O)O.O=C(O)C(F)(F)F	2 µg/mL
CC(C)[C@H](O/N=C(\C(=O)N[C@@H]1C(=O)N2C(C(=O)O)=C(CSCCNC(=O)c3ccc(O)c(O)c3Cl)CS[C@H]12)c1csc(N)n1)C(=O)O.O=C(O)C(F)(F)F	1 µg/mL
CC(C)(O/N=C(\C(=O)N[C@@H]1C(=O)N2C(C(=O)[O-])=C(C[N+]3(CCNC(=O)c4ccc(O)c(O)c4Cl)CCCC3)CS[C@H]12)c1csc(N)n1)C(=O)O	2 µg/mL
Nc1nc(/C(=N/O[C@H](C(=O)O)C2CCC(F)(F)CC2)C(=O)N[C@@H]2C(=O)N3C(C(=O)O)=C(CSCCNC(=O)c4ccc(O)c(O)c4Cl)CS[C@H]23)cs1.O=C(O)C(F)(F)F	8 µg/mL

Proceed to the following item.
Enquiry: Returns the measured MIC for the input molecule. Input: Nc1nc(/C(=N/OC(C(=O)O)C2CCCCC2)C(=O)N[C@@H]2C(=O)N3C(C(=O)O)=C(CSCCNC(=O)c4ccc(O)c(O)c4Cl)CS[C@H]23)c(Br)s1.O=C(O)C(F)(F)F (stereo partly specified)
Return: 4 µg/mL

Hey, just so you know, these numbers are from ChEMBL document CHEMBL5543142.
